pKi: −log10 of the molar value.
Hi, quick share: literature pKi data for UniProt:Q9YQ12, several sources combined.
READOUT: pKi

MOLECULE	OBS VALUE
N#Cc1cccc(CN2C(=O)N(Cc3cccc(C#N)c3)C(Cc3ccccc3)C(O)C2CCc2ccccc2)c1 (centres undefined)	7.96
CC(C)CN(C[C@@H](O)[C@H](CSc1ccccc1)NC(=O)O[C@@H]1C[C@@H]2CCO[C@@H]2C1)S(=O)(=O)c1ccc(CO)cc1	10.54
C=CCNC(=O)[C@@H](NC(=O)[C@](O)(CCCN(Cc1ccc(Br)cc1)NC(=O)[C@@H](NC(=O)OC)C(C)(C)C)Cc1ccc(C=C)cc1)C(C)(C)C	6.14
COc1ccc(S(=O)(=O)N(CC(C)C)C[C@@H](O)[C@H](Cc2ccccc2)NC(=O)O[C@H]2CO[C@H]3OC[C@H](N(C)C(=O)OC(C)(C)C)[C@H]32)cc1	10.92
